# measured-on: Mushroom tyrosinase (Agaricus bisporus) (UniProt O42713+Q00024+C7FF04+C7FF05)
# assay-procedure: Inhibition of mushroom tyrosinase monophenolase activity at 100 to 500 uM using L-tyrosine as substrate
Active and inactive are the calls of the source. The rule behind the calls is not given here.
Return exactly one item of active, inactive

Outcome logged for H-HPTSEVY-OH in this assay:
active

Outcome logged for H-WEEEPEDER-OH in this assay:
inactive

Outcome logged for H-HGGEGGRPY-OH in this assay:
active

Outcome logged for H-DTVHGQW-OH in this assay:
inactive

Outcome logged for H-WEAGQDQR-OH in this assay:
inactive
